- Protocol summary: Beagle PK (pharmacokinetics)
- Format: in vivo, beagle dogs
- Particulars: whole blood; Beagle dog, PO 3 mg/kg
Property: Tmax (h)
Write the number in h without appending the unit.

O=C(C1CCN(c2cc(-c3cc(OCCCO)ccc3F)ccn2)CC1)N1N=CCC1c1cc(F)cc(F)c1 (racemic) [Example 18] | 1

--- query ---
Ask | Quick one: Tmax of CC(C)(O)COc1ccc(F)c(-c2ccnc(N3CCC(C(=O)N4N=CC[C@H]4c4cc(F)cc(F)c4)CC3)c2)c1 (racemic) [Example 42] ?
Reply | 1.17

* * *

- Protocol summary: Beagle PK (pharmacokinetics)
- Type: in vivo, beagle dogs
- Particulars: whole blood; Beagle dog, PO 3 mg/kg
Property: Cmax

CC(C)(O)COc1ccc(F)c(-c2ccnc(N3CCC(C(=O)N4N=CC[C@H]4c4cc(F)cc(F)c4)CC3)c2)c1 (racemic) [Example 42] | 1510 ng/mL

--- query ---
Ask | Quick one: Cmax of O=C(C1CCN(c2cc(-c3cc(OCCCO)ccc3F)ccn2)CC1)N1N=CCC1c1cc(F)cc(F)c1 (racemic) [Example 18] ?
Reply | 1460 ng/mL

* * *

- System: L929 cells
- Protocol summary: Inhibition of cell necrosis (CCK8 method), L929 cells
- Format: cell-based, mouse
- Particulars: Mus musculus, L929, L929, Murine TNF-α/Z-VAD-FMK, 4-8 hours, CCK8
pIC50: −log10 of the molar value.
Property: pIC50

COCCOc1cccc(-c2ccnc(N3CCC(C(=O)N4N=CCC4c4cc(F)cc(F)c4)CC3)c2)c1 (stereo not drawn) | 7.00 to 7.30
O=C(C1CCN(c2cc(-c3cc(OCCCO)ccc3F)ccn2)CC1)N1N=CC[C@H]1c1cc(F)cc(F)c1 (racemic) | 7.30 to 8.00
CC(C)(O)CCOc1ccc(F)c(-c2ccnc(N3CCC(C(=O)N4N=CCC4c4cc(F)cc(F)c4)CC3)n2)c1 (stereo not drawn) | 7.00 to 7.30
O=C(C1CCN(c2cc(-c3cc(OCCO)ccc3F)ccn2)CC1)N1N=CCC1c1cc(F)cc(F)c1 (stereo not drawn) | 7.00 to 7.30
O=C(C1CCN(c2cc(-c3cc(OCCCO)ccc3Cl)ccn2)CC1)N1N=CCC1c1cc(F)cc(F)c1 (stereo not drawn) | 7.00 to 7.30

Ask | Quick one: pIC50 of O=C(C1CCN(c2nccc(-c3ccccc3)n2)CC1)N1N=CCC1c1ccccc1 (stereo not drawn) [compound 2, reference compound] ?
Reply | < 5.40

Ask | Similarly, COCCCOc1ccc(F)c(-c2ccnc(N3CCC(C(=O)N4N=CCC4c4cc(F)cc(F)c4)CC3)c2)c1 (stereo not drawn) ?
Reply | 7.00 to 7.30

* * *

- Protocol summary: Rat PK&BBB (pharmacokinetics and brain penetration)
- Format: in vivo, SD rats
- Particulars: SD, whole blood, PO 30 mg/kg vs IV 3 mg/kg
- Protocol: In this assay, the pharmacokinetic characteristics and ability to penetrate the blood-brain barrier of the compounds of the present application were assayed after administration of some of the compounds of the present application to SD rats, CD-1 mice or beagle dogs by single oral administration and intravenous injection. 1. […] Pharmacokinetic parameters were calculated using WinNonlin software. […]
Property: bioavailability (%)
Write the number in % without appending the unit.

The cases that follow already have their bioavailability on record.
O=C(C1CCN(c2cc(-c3cc(OCCCO)ccc3F)ccn2)CC1)N1N=CCC1c1cc(F)cc(F)c1 (racemic) | 17.3
O=C(C1CCN(c2cc(-c3cc(OCCCO)ccc3F)ccn2)CC1)N1N=CC[C@H]1c1cc(F)cc(F)c1 (racemic) | 33.2

--- query ---
Ask | Quick one: bioavailability of CC(C)(O)COc1ccc(F)c(-c2ccnc(N3CCC(C(=O)N4N=CC[C@H]4c4cc(F)cc(F)c4)CC3)c2)c1 (racemic) ?
Reply | 64

* * *

- Protocol summary: Mouse PK&BBB (pharmacokinetics and brain penetration)
- Type: in vivo, CD-1 mice
- Particulars: CD-1, brain / whole blood, PO 20 mg/kg, 2 h after administration, read-out: Brain/blood ratio
Property: Kp at 2 h
Lab note: jot down the number only; don't add units.

Ask | Quick one: Kp at 2 h of O=C(C1CCN(c2cc(-c3cc(OCCCO)ccc3F)ccn2)CC1)N1N=CC[C@H]1c1cc(F)cc(F)c1 (racemic) [Example 40] ?
Reply | 1.85

* * *

AUC(0-inf) by entry:
- Protocol summary: Rat PK&BBB (pharmacokinetics and brain penetration)
- Assay type: in vivo, SD rats
- Particulars: SD, whole blood, IV 3 mg/kg
Write the number in ng·h/mL without appending the unit.

The cases that follow already have their AUC(0-inf) on record.
O=C(C1CCN(c2cc(-c3cc(OCCCO)ccc3F)ccn2)CC1)N1N=CCC1c1cc(F)cc(F)c1 (racemic) | 560
CC(C)(O)COc1ccc(F)c(-c2ccnc(N3CCC(C(=O)N4N=CC[C@H]4c4cc(F)cc(F)c4)CC3)c2)c1 (racemic) | 4140

Ask | Quick one: AUC(0-inf) of O=C(C1CCN(c2cc(-c3cc(OCCCO)ccc3F)ccn2)CC1)N1N=CC[C@H]1c1cc(F)cc(F)c1 (racemic) ?
Reply | 592

* * *

- Protocol summary: Mouse PK&BBB (pharmacokinetics and brain penetration)
- Format: in vivo, CD-1 mice
- Particulars: CD-1, whole blood, IV 2 mg/kg
Property: Vd (L/kg)
Write the number in L/kg without appending the unit.

Ask | Quick one: Vd of O=C(C1CCN(c2cc(-c3cc(OCCCO)ccc3F)ccn2)CC1)N1N=CC[C@H]1c1cc(F)cc(F)c1 (racemic) ?
Reply | 6.97

* * *

- Protocol summary: Rat PK&BBB (pharmacokinetics and brain penetration)
- Assay type: in vivo, SD rats
- Particulars: Sprague-Dawley, rat, whole blood, po, 30 mg/kg, PO 30 mg/kg, 1 hr, read-out: Blood drug concentration
- Experimental: In this assay, the pharmacokinetic characteristics and ability to penetrate the blood-brain barrier of the compounds of the present application were assayed after administration of some of the compounds of the present application to SD rats, CD-1 mice or beagle dogs by single oral administration and intravenous injection. 1. […] Pharmacokinetic parameters were calculated using WinNonlin software. […]
Property: concentration at 1 h (ng/mL)
Write the number in ng/mL without appending the unit.

O=C(C1CCN(c2cc(-c3cc(OCCCO)ccc3F)ccn2)CC1)N1N=CC[C@H]1c1cc(F)cc(F)c1 (racemic) | 547
O=C(C1CCN(c2cc(-c3cc(OCCCO)ccc3F)ccn2)CC1)N1N=CCC1c1cc(F)cc(F)c1 (racemic) | 309

--- query ---
Ask | Quick one: concentration at 1 h of CC(C)(O)COc1ccc(F)c(-c2ccnc(N3CCC(C(=O)N4N=CC[C@H]4c4cc(F)cc(F)c4)CC3)c2)c1 (racemic) ?
Reply | 1250

* * *

concentration at 2 h by entry:
- Protocol summary: Rat PK&BBB (pharmacokinetics and brain penetration)
- Assay type: in vivo, SD rats
- Particulars: Sprague-Dawley, rat, whole blood, po, 30 mg/kg, PO 30 mg/kg, whole blood, 2 h after administration, read-out: Blood drug concentration
Write the number in ng/mL without appending the unit.

The cases that follow already have their concentration at 2 h on record.
CC(C)(O)COc1ccc(F)c(-c2ccnc(N3CCC(C(=O)N4N=CC[C@H]4c4cc(F)cc(F)c4)CC3)c2)c1 (racemic) [Example 42] | 2150
O=C(C1CCN(c2cc(-c3cc(OCCCO)ccc3F)ccn2)CC1)N1N=CCC1c1cc(F)cc(F)c1 (racemic) [Example 18] | 266

Ask | Quick one: concentration at 2 h of O=C(C1CCN(c2cc(-c3cc(OCCCO)ccc3F)ccn2)CC1)N1N=CC[C@H]1c1cc(F)cc(F)c1 (racemic) [Example 40] ?
Reply | 274

* * *

- Protocol summary: Rat PK&BBB (pharmacokinetics and brain penetration)
- Type: in vivo, SD rats
- Particulars: Sprague-Dawley, rat, whole blood, iv, 3 mg/kg, IV 3 mg/kg, 1 hr, read-out: Blood drug concentration
concentration at 1 h by entry:
Write the number in ng/mL without appending the unit.

Ask | Quick one: concentration at 1 h of CC(C)(O)COc1ccc(F)c(-c2ccnc(N3CCC(C(=O)N4N=CC[C@H]4c4cc(F)cc(F)c4)CC3)c2)c1 (racemic) [Example 42] ?
Reply | 368

Ask | Similarly, O=C(C1CCN(c2cc(-c3cc(OCCCO)ccc3F)ccn2)CC1)N1N=CCC1c1cc(F)cc(F)c1 (racemic) [Example 18] ?
Reply | 94.7

Ask | Similarly, O=C(C1CCN(c2cc(-c3cc(OCCCO)ccc3F)ccn2)CC1)N1N=CC[C@H]1c1cc(F)cc(F)c1 (racemic) [Example 40] ?
Reply | 119

* * *

bioavailability by entry:
- Protocol summary: Beagle PK (pharmacokinetics)
- Type: in vivo, beagle dogs
- Particulars: whole blood; Beagle dog, PO 3 mg/kg vs IV 1 mg/kg
- Method: In this assay, the pharmacokinetic characteristics and ability to penetrate the blood-brain barrier of the compounds of the present application were assayed after administration of some of the compounds of the present application to SD rats, CD-1 mice or beagle dogs by single oral administration and intravenous injection. 1. […] Pharmacokinetic parameters were calculated using WinNonlin software. […]
Write the number in % without appending the unit.

CC(C)(O)COc1ccc(F)c(-c2ccnc(N3CCC(C(=O)N4N=CC[C@H]4c4cc(F)cc(F)c4)CC3)c2)c1 (racemic) | 127

Ask | Quick one: bioavailability of O=C(C1CCN(c2cc(-c3cc(OCCCO)ccc3F)ccn2)CC1)N1N=CCC1c1cc(F)cc(F)c1 (racemic) ?
Reply | 183
